# assay target: UniProtKB P11229
# Sequence (P11229 whole entry): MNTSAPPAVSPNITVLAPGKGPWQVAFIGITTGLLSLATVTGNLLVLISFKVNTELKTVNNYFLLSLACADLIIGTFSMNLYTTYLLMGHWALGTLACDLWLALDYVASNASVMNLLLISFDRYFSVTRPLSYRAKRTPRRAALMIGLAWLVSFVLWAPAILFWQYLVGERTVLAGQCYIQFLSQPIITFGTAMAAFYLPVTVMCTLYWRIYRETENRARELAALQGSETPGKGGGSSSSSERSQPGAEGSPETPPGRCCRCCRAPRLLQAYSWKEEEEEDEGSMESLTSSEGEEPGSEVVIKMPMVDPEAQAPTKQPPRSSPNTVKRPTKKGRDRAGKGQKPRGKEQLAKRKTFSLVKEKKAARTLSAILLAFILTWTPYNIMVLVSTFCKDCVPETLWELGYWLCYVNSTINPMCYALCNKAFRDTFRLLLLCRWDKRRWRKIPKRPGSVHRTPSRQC
# experimental details: Ca2+ flux assay in CHO-K1 cells stably expressing human M1R (FLIPR), agonist and PAM mode, operational model fit
# Assay type: cell-based
# run parameters: inflection point in the presence of EC20 ACh; mean of three independent experiments; read-out: M1PAM activity pIP Mean (converted)
readout type: EC50 (nM)
The answer is to be given in nM; state only the numeric part.

Study these solved cases before continuing.
>  <compound>
Cn1ccc(-c2ccc(CN3Cc4cccc(O[C@H]5CCCC[C@@H]5O)c4C3=O)cc2)n1

>  <unit of measurement>
nM

>  <EC50>
10.2

$$$$
>  <compound>
Cn1cc(-c2ccc(CN3Cc4cccc(Oc5c(F)cccc5C#N)c4C3=O)cc2)cn1

>  <unit of measurement>
nM

>  <EC50>
40.7

$$$$
>  <compound>
Cn1cc(-c2ccc(Cc3cc4c(=O)n([C@H]5CCCC[C@@H]5O)cnc4c4ccccc34)cn2)cn1 [Compound C, reference compound]

>  <unit of measurement>
nM

>  <EC50>
2.09

$$$$

Challenge: // EC50 lookup, key: O=c1c2cn(Cc3ccc(-n4cccn4)cc3)c3ccccc3c-2nn1-c1ccccc1F [Compound E, reference compound]
Response given: 8.51

Challenge: Same again, this time with Cn1cc(-c2ccc(CN3Cc4cccc(-c5ccn[nH]5)c4C3=O)cc2)cn1
Response given: 275

Challenge: # iterate: Cn1cc(-c2ccc(CN3Cc4cccc(OCCN5CCCCC5)c4C3=O)cc2)cn1
Response given: 79.4

###

# assay target: M4R (Homo sapiens)
# Sequence (P08173 1-479): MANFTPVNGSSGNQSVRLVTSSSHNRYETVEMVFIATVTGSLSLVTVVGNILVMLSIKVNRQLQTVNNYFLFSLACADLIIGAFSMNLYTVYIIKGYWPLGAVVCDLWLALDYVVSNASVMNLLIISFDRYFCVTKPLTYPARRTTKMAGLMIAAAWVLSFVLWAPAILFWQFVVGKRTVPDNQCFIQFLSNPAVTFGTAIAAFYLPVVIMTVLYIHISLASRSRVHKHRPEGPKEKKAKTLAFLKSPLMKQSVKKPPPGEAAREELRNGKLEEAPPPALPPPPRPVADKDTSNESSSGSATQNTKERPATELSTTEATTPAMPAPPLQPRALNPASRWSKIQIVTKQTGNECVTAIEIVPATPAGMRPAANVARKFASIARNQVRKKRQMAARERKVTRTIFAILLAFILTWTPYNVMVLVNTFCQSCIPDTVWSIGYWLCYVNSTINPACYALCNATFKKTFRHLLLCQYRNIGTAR
# experimental details: Ca2+ flux PAM activity against other muscarinic receptor subtypes, M4R
# Type: cell-based
# run parameters: in the presence of EC20 ACh; read-out: PAM activity against other muscarinic receptor subtypes M4R pIP (converted)
readout type: EC50

Record excerpt, results attached:
>  <molecule>
O=c1c2cn(Cc3ccc(-n4cccn4)cc3)c3ccccc3c-2nn1-c1ccccc1F [Compound E, reference compound]

>  <readout type>
EC50

>  <result>
> 10 µM

$$$$
>  <molecule>
Cn1cc(-c2ccc(Cc3cc4c(=O)n([C@H]5CCCC[C@@H]5O)cnc4c4ccccc34)cn2)cn1 [Compound C, reference compound]

>  <readout type>
EC50

>  <result>
> 10 µM

$$$$
>  <molecule>
Cn1ccc(-c2ccc(CN3Cc4cccc(O[C@H]5CCCC[C@@H]5O)c4C3=O)cc2)n1

>  <readout type>
EC50

>  <result>
1 µM

$$$$

Challenge: For Cn1cc(-c2ccc(CN3Cc4cccc(OCCN5CCCCC5)c4C3=O)cc2)cn1 , what is its reported EC50?
Response given: > 10 µM

Challenge: Quick one: Cn1cc(-c2ccc(CN3Cc4cccc(-c5ccn[nH]5)c4C3=O)cc2)cn1
Response given: > 10 µM

Challenge: Same question, Cn1cc(-c2ccc(CN3Cc4cccc(Oc5c(F)cccc5C#N)c4C3=O)cc2)cn1 this time
Response given: > 10 µM
